Target or system Tyrosine-protein kinase receptor UFO (Homo sapiens, UniProt P30530); metric IC50; compiled from varied reports.

Q: Quick one: give measured IC50 for `COCCOc1nc(Nc2ccc(CN3CCN(C)CC3)cc2)nc2[nH]cc(-c3ccc(OCc4cccc(F)n4)cc3F)c12`
Ans: < 30 nM

Q: // fetch IC50 given entry `CNC(=O)c1cncc(-c2cc([C@H]3CC[C@H](O)CC3)n3nc(N[C@@H](C)COC(F)F)ncc23)c1`
Ans: ≤ 100 nM

Q: Indicate the recorded IC50 value for this compound: `COc1cc2nccc(Oc3cnc(NC(=O)c4nn(C5CC5)cc(-c5ccc(F)cc5)c4=O)nc3)c2cc1OC`
Ans: 2 nM

Q: Assign IC50 to the following record: CCCC(C)Nc1ncc2c(OCCN3CCOCC3)ncc([C@H]3CC[C@H](O)CC3)c2n1 (stereo partly drawn)
Ans: 1000 to 10000 nM

Q: Give a short answer stating reported IC50 for `Nc1ncnn2c(C3CCN(C(=O)C4CC4)CC3)cc(-c3ccc(NC(=O)c4c5n(n(-c6cccnc6)c4=O)CCCC5)cc3)c12` .
Ans: 5 to 50 nM

Further cases:
Q: For the compound `CC[C@H](C)Nc1ncc2c(=O)n([C@H]3CC[C@H](N(C)C)C3)cc([C@H]3CC[C@H](O)CC3)c2n1` , report IC50.
Ans: 100 to 1000 nM
